Give measured inhibition for each item. Keep answers brief.
- System Under Test: Protein arginine N-methyltransferase 1 (Homo sapiens) (UniProt Q99873)
- Sequence (Q99873 whole entry, looked up): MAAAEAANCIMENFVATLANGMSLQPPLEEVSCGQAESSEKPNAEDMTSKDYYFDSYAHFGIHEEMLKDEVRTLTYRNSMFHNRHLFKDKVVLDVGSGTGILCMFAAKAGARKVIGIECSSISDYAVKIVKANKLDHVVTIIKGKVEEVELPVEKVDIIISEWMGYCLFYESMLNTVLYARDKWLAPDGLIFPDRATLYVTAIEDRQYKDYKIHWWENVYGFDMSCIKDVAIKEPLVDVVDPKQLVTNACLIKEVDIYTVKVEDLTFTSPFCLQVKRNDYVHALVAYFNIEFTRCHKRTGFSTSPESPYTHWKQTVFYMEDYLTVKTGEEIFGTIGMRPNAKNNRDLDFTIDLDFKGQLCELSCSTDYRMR
- Assay Notes: human PRMT1 activity-probe blockers – biochemical, fluorescence polarization, primary screen (AID 652257)
- Condition Notes: recombinant PRMT1, activity-based probe fluorescence polarization; at 2.79 µM; stronger effect = higher value
Among all 370,000 compounds or so, about 4,800 (1.3%) were called active. Many of the other results were omitted from the sample, so actives are more common in it than they were.
One number for each entry, in %.

In the examples that follow, each entry is paired with its recorded inhibition.
Compound: Cc1ccc(CSc2nnc(SCC(=O)NN=Cc3cc(Br)ccc3F)s2)cc1
inhibition / %: 3.3
--
Compound: CCN1C(=O)[C@H]2[C@@H](c3ccccc3)N[C@]3(CCCN(Cc4ccc(C)cc4)C3=O)[C@H]2C1=O
inhibition / %: -1.43

Hello, I would appreciate it if you could give inhibition for each entry below.
1. COc1ccc(CN2C(=O)N3Cc4cc(OC)ccc4C3CS2(=O)=O)cc1 (centres undefined)
2. Cc1cccc(Oc2c([N+](=O)[O-])c(=O)n(C)c3ccccc23)c1
3. CCCCOCCCNC(=O)C[C@H]1C[C@@]2(C(=O)OC)C(=C[C@H](COCc3ccccc3)O[C@@H]2C)N(Cc2cccc3ccccc23)C1=O

Reply:
1: 3.9; 2: 30; 3: -1.04

* * *

- System Under Test: Protein arginine N-methyltransferase 1 (Homo sapiens) (UniProt Q99873)
- Assay Notes: human PRMT1 activity-probe blockers – biochemical, fluorescence polarization, primary screen (AID 652257)
- Condition Notes: recombinant PRMT1, activity-based probe fluorescence polarization; at 2.79 µM; stronger effect = higher value
Among all 370,000 compounds or so, about 4,800 (1.3%) were called active. What follows is part of a selection rich in actives, with near analogues and random picks from the rest.
Outcome Measure: inhibition (%)
One number for each entry, in %.

// below: answered compounds
Compound: CC1=C(C)CC2C(=O)N(c3cccc4ccccc34)C(=O)C2C1 (stereo not drawn)
System Under Test: Protein arginine N-methyltransferase 1 (Homo sapiens) (UniProt Q99873)
Units: %
inhibition: 42
--
Compound: O=C(CCS(=O)(=O)c1ccccc1)Nc1ccc(Cl)c(Cl)c1
System Under Test: Protein arginine N-methyltransferase 1 (Homo sapiens) (UniProt Q99873)
Units: %
inhibition: 1.21
--
Compound: O=C(Nc1ccc(F)cc1)c1cccnc1N1CCOCC1
System Under Test: Protein arginine N-methyltransferase 1 (Homo sapiens) (UniProt Q99873)
Units: %
inhibition: 0.36
--
Compound: C=CCN1C(=O)[C@@H](CC(=O)N2CCN(C(=O)c3ccco3)CC2)[C@]2(C(=O)OC)CCCCC=C12
System Under Test: Protein arginine N-methyltransferase 1 (Homo sapiens) (UniProt Q99873)
Units: %
inhibition: 0.68
--
Compound: CC(=O)N(c1ccc2oc(=O)sc2c1)S(=O)(=O)c1ccc(C)cc1
System Under Test: Protein arginine N-methyltransferase 1 (Homo sapiens) (UniProt Q99873)
Units: %
inhibition: 86

Go through the items and report each one's inhibition.
1. CC(=O)Oc1ccc(N(C(C)=O)S(=O)(=O)c2ccc3ccccc3c2)cc1Br
2. CN(C(N)=NC(=O)/C=C/c1ccccc1)C(C#Cc1ccccc1)Cc1ccccc1 (stereo not drawn)
3. CC(C)n1c(-c2ccncc2)n[nH]c1=S
4. Cc1ccc(NC(=O)CSc2nn3c(=O)c(C)nnc3s2)cc1Cl
5. O=C1C(Cl)=C(Oc2ccccc2)C(=O)c2ccccc21
6. CCOC(=O)c1ccccc1NC(=O)CSc1nc2c(sc(=S)n2CC)c(=O)[nH]1
7. COc1ccc(Cn2cc(CN3[C@@H](CC(C)C)COc4cc(Br)ccc4S3(=O)=O)nn2)cc1
8. Cc1cccc(C)c1NC(=O)C(c1ccc(C(F)(F)F)cc1)n1c(=O)c(-c2ccco2)nc2ccccc21 (stereo not drawn)

Reply:
1: -3.71; 2: -2.71; 3: -2.82; 4: 1.57; 5: 88.5; 6: 19; 7: -4.17; 8: 23.1

For every item below, please supply its inhibition.
1. Cc1cccc(NC(=O)c2cc3c(C)nn(-c4ccccc4)c3s2)c1
2. Cc1ccc(NCc2n[nH]c(=S)n2-c2ccccc2)cc1Cl
3. COc1ccc(/C=N/n2c(C)cc(C)cc2=O)cc1

Reply:
-4.86
15.4
-4.04

Count: 4. Required value per item: inhibition.
1. O=C(CCCCCN1C(=O)C2C3C=CC(C3)C2C1=O)Nc1ccccc1 (stereo not drawn)
2. Cc1ccc(CN(C)C[C@@H]2OCc3cnnn3CCCC(=O)N([C@@H](C)CO)C[C@H]2C)cc1
3. Cn1c(=O)c2cn(-c3cccc4ccccc34)cc2n(C)c1=O
4. COc1ccc(C)cc1NC(=S)N1CCOCC1

Reply:
1. -2.78
2. -5.16
3. -1.91
4. -1.44

* * *

What inhibition was measured for each of the following?
- System Under Test: Protein arginine N-methyltransferase 1 (Homo sapiens)
- Assay Notes: human PRMT1 activity-probe blockers – biochemical, fluorescence polarization, primary screen (AID 652257)
- Condition Notes: recombinant PRMT1, activity-based probe fluorescence polarization; at 2.79 µM; stronger effect = higher value
Hit rate of the full screen: of about 370,000 compounds, about 4,800 (1.3%) were called active. The full list was thinned out, with actives kept by preference.
Answers are plain numbers, in %.

Completed entries (count: 3):
Molecule: Nc1ccc2nc3c(=O)[nH]c(=S)[nH]c3nc2c1
inhibition [%]: 129
--
Molecule: COc1ccc(Cl)cc1NS(=O)(=O)c1cccc(C(=O)NC2CCC(O)CC2)c1 (stereo not given)
inhibition [%]: -6.68
--
Molecule: N#CC1=C(N)Oc2[nH]c(=S)[nH]c(=O)c2C12C(=O)Nc1ccccc12 (stereo not given)
inhibition [%]: 37.2

Your task in this section: give inhibition for each listed record.
1. O=S(=O)(c1ccccc1)N1CCC(c2nc3ccccc3o2)CC1
2. CCOC(=O)c1cc2n(c1N)-c1ccccc1C2=O
3. O=C(C1=C(O)C(=O)N(c2ncccn2)C1c1cccs1)c1ccco1 (stereo not given)
4. O=C(O)c1[nH]c2ccccc2c1C(c1cccc(O)c1)c1c(C(=O)O)[nH]c2ccccc12
5. COc1ccc(OCc2n[nH]c(=S)n2N)cc1
6. COc1ccccc1CCNC(=O)C1CCN(c2nc(C)cc(C)n2)CC1

Reply:
1: -3.15; 2: 29.4; 3: -1.95; 4: -1.91; 5: 4.04; 6: 1.67

* * *

Kindly state inhibition for each of the entries shown.
- System Under Test: Protein arginine N-methyltransferase 1 (Homo sapiens)
- Assay Notes: human PRMT1 activity-probe blockers – biochemical, fluorescence polarization, primary screen (AID 652257)
- Condition Notes: recombinant PRMT1, activity-based probe fluorescence polarization; at 2.79 µM; stronger effect = higher value
About 4,800 (1.3%) of roughly 370,000 compounds were called active. The list comes from a sample in which actives are over-represented; it also holds close analogues and randomly drawn compounds.
Numbers only, in %.

Below: 6 molecules and their reported inhibition.
Molecule: COc1ccc(OCC(=O)Nc2nnc(-c3ccco3)s2)cc1
Units: %
inhibition: 22.1

Molecule: O=[N+]([O-])/C=C/c1ccc2c(ccn2Cc2ccccc2)c1
Units: %
inhibition: 24.4

Molecule: O=C1c2ccccc2C(=O)N1CCC(c1ccccc1)c1ccco1 (stereo not given)
Units: %
inhibition: 8.33

Molecule: O=C(c1cc(-c2ccco2)nc2ccccc12)N(Cc1nnc(-c2ccc(Cl)cc2)o1)C1CC1
Units: %
inhibition: 22.5

Molecule: O=C(NCCc1c[nH]c2ccccc12)OCc1cn(-c2c(F)cccc2F)nn1
Units: %
inhibition: 0.52

Molecule: CCOC(=O)[C@]12CCCCC/C=C\1N(Cc1ccc(OC)cc1)C(=O)[C@H]2CC(=O)N1CCOCC1
Units: %
inhibition: 0.54

List inhibition for every entry below, keeping the order given.
1. Cc1ccc(-c2nn(-c3cccc(F)c3)cc2CNCCc2ccncc2)o1
2. Cc1cc(=O)[nH]c(=S)[nH]1
3. O=C(/C=C/c1cn(-c2ccccc2)nc1-c1ccc2c(c1)OCCO2)NCCCN1CCOCC1
4. CC(C)N1CCCCC(NC(=O)C(C)(C)C)C1=O (stereo not given)

Reply:
[-2.78, 107, 3.18, -1.77]

* * *

- System Under Test: Protein arginine N-methyltransferase 1 (Homo sapiens)
- Assay Notes: human PRMT1 activity-probe blockers – biochemical, fluorescence polarization, primary screen (AID 652257)
- Condition Notes: recombinant PRMT1, activity-based probe fluorescence polarization; at 2.79 µM; stronger effect = higher value
The whole screen tested about 370,000 compounds, of which about 4,800 (1.3%) were called active. For the sample, actives were picked, then their nearest neighbours and some compounds at random.
Could you please report measured inhibition for the items listed next?
Numbers only, in %.

Smiles Str: COc1ccc(-c2nn(C)c(=O)c3ccccc23)cc1NC(=O)COc1ccccc1
Units: %
inhibition: 3.05

Smiles Str: COc1ccc(NC(=O)CSc2nnc(Cc3ccccc3)c(=O)n2N)cc1
Units: %
inhibition: 31.4

Smiles Str: O=C(COC(=O)c1ccc2c(c1)OCCO2)NCc1ccccc1Cl
Units: %
inhibition: -2.85

For the 8 compounds below, give their inhibition values.
1. COc1ccc(Cc2nnc(SCC(=O)N(c3ccccc3)C(C)C)n(N)c2=O)cc1
2. O=C(COC(=O)c1c(Cl)cccc1Cl)Nc1cccc(S(=O)(=O)NC2=NCCCCC2)c1
3. O=C(CSc1nc2ccccc2s1)NN=Cc1ccc(O)cc1O
4. Cc1cc(C)n2ncc(C(=O)Nc3ccc4c(c3)OCCO4)c2n1
5. CC1(C)NC(=O)N(CC(=O)Nc2ccc(-c3ccccc3)cc2)C1=O
6. O=C(C1CCN(S(=O)(=O)c2ccccc2)CC1)N1CCN(C2CCCCC2)CC1
7. Cc1ccc(NC(=O)Cn2sc3ccccc3c2=O)cc1
8. CN(C)c1ccc(N/C=C/C(=O)C(F)(F)F)cc1

Reply:
-6.66
-1.88
-0.64
-2.31
-1.42
-0.34
91.8
36.9

Reference source for all entries: PubChem BioAssay AID652257
